Provenance of the data: the DeepSol protein solubility set

- assay: soluble on expression in E. coli; label from the status in PepcDB or PDB records
measurement-type: soluble on expression in E. coli

sequence	result
MSSNECFKCGRSGHWARECPTGGGRGRGMRSRGRGFQFVSSSLPDICYRCGESGHLAKDCDLQEDACYNCGRGGHIAKDCKEPKREREQCCYNCGKPGHLARDCDHADEQKCYSCGEFGHIQKDCTKVKCYRCGETGHVAINCSKTSEVNCYRCGESGHLARECTIEATA	not soluble
SEMIGGDDTDTEMYGALVTAQSLRLRHLHHCRENQCTSVLVKYIQAPVHLVWSLVRRFDQPQKYKPFISRCTVNGDPEIGCLREVNVKSGLPATTSTERLEQLDDEEHILGINIIGGDHRLKNYSSILTVHPEMIDGRSGTMVMESFVVDVPQGNTKDDTCYFVESLIKCNLKSLACVSERLAAQDITNSIATFCNASNGYREKNHTETNL	soluble
MGSDKIHHHHHHMNLVAHAQNTEPFEGVMKWAITVDIVDSKVADSYQTEIQSEDNSEVNQAIKELEQQLKDPEMQEMLLENPTIKNSMLKKLQQLKAAQTTNQENSTNSIFPSALSIFLKNNNSFTKIDGGSMVKLTGNMLYLNTNKNTYFIKDKTSTYSVINDTARLNTNDSLIALIATTDTTMILDCICIKYILTTKENNEIKTSYIWITNDLPSMNSAAFRSLGFMDGNLHHEAFKEMKGIPMRIEIFEKGLKMNMEVSEISMELVADTYFTIPSNYRESPFGF	not soluble
MTNDFATVLRQFVEGLDLGIKPRLDYLTRQEDLAIYPMPGGKVNNEYMDGTREISLPFEIAIKTKNQELASTVMWTINSALSNFDLKLPSLNHSYTFISLDVEKPFLNDLSDQGFYIYVLDITAHLEIEGNN	soluble

----------
- assay: soluble on expression in E. coli; label from the status in PepcDB or PDB records

sequence	soluble on expression in E. coli
MELDDALDELSDSLGQRQPDPDENKPLDDKVKEKIKAEHSEKLGERDDTIPPEYRHLLDNDGKDKPEKPLTKNTEKPGQDQDPIDALSEDLDSCP	soluble
AHHHHHHGSKVVIVGNGPGGFELAKQLSQTYEVTVIDKEPVPYYSKPMLSHYIAGFIPRNRLFPYSLDWYRKRGIEIRLAEEAKLIDRGRKVVITEKGEVPYDTLVLATGARAREPQIKGKEYLLTLRTIFDADRIKESIENSGEAIIIGGGFIGLELAGNLAEAGYHVKLIHRGAMFLGLDEELSNMIKDMLEETGVKFFLNSELLEANEEGVLTNSGFIEGKVKICAIGIVPNVDLARRSGIHTGRGILIDDNFRTSAKDVYAIGDCAEYSGIIAGTAKAAMEQARVLADILKGEPRRYNFKFRSTVFKFGKLQIAIIGNTKGEGKWIEDNTKVFYENGKIIGAVVFNDIRKATKLEKEILDFYS	soluble
SVLQVLHIPDERLRKVAKPVEEVNAEIQRIVDDMFETMYAEEGIGLAATQVDIHQRIIVIDVSENRDERLVLINPELLEKSGETGIEEGCLSIPEQRALVPRAEKVKIRALDRDGKPFELEADGLLAICIQHEMDHLVGKLFMDYLSPLKQQRIRQKVEKLDRLKARAPNSSSVDKLAAALEHHHHHH	soluble

----------
- assay: soluble on expression in E. coli; label from the status in PepcDB or PDB records
measurement-type: soluble on expression in E. coli

sequence	result
MTYCLAIKVDQGLVFASDSRTHAGVDYASVYSKMYRFDLHSDRLMIVLAAGNLATTQAVINLIRRDLENPGALYNLNTVAYLYDAASYIGETSVRVQEQHASAMQRCGISGEASFILGGQIQGQPPEIYLIYPQGNYITVSPDNPYLQIGETKYGKPILDRMIAPATTLEDAARCALVSIDSTMRSNISVGPPVEVAIYRRNSFVVGHYLHLDYSSPLYALIQKQWAEGIRNAFTLLPRFEWEDGGSIGSEQSQLEHHHHHH	not soluble
MLAVHRPSSAVSDGDSVQIPMMIASFQKRFPSLSRDSTAARFHTHEVGPNQCCSAVIQEISAPISTVWSVVRRFDNPQAYKHFLKSCSVIGGDGDNVGSLRQVHVVSGLPAASSTERLDILDDERHVISFSVVGGDHRLSNYRSVTTLHPSPISGTVVVESYVVDVPPGNTKEETCDFVDVIVRCNLQSLAKIAENTAAESKKKMSL	not soluble
